Tested on: ATP;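 also: ATP exposure 15 min at 22 °C before imaging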
runDescription: switch fluorescence ratio, 500 uM ATP over buffer (Cy3 cluster intensity, sum of 5 cycles each) (fold (ratio)); higher = stronger signal-on switching upon ATP binding; sequences stand for … in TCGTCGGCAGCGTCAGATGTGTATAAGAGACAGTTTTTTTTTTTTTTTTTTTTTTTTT…TC
conditionDetails: aptamer strand: ATP DNA aptamer (quencher-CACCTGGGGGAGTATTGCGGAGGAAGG + anchor), 100 nM annealed; ATP concentration: 500 uM
measuredProperty: switch fluorescence ratio

CATTTCAGAG :: 1
TTTAGTTGGT :: 1
GAAGTGAGCA :: 1.01
GTGATAGGGA :: 1
TATTTAGAAG :: 1.02
GAACTTGATG :: 0.997
CAGTTAGTGT :: 1
GTGTCATAGT :: 0.992
AAGAGGAAGG :: 0.971
GCCTGCCGTT :: 0.996
TGTTAGGGTT :: 1.01
ATTATGAATC :: 1.02
TTCTGGTATA :: 1.02
TTAGAACATC :: 1.01
GCTGGAGGGT :: 0.997
TTTTATAGGA :: 0.976
GGTTAAGTGG :: 1.01
AGTAGGGAGT :: 0.978
AGATTTCATA :: 0.985
AGTTTTTTGG :: 1.01
TTGAGGACGT :: 0.975
GTATATCTGT :: 1.01
ATATTTTAAC :: 1
TGGCGGACAG :: 0.99
TGGGCATTTT :: 0.987
